Target: T1, human IL-33 (R&D Systems, #3625-IL-010/CF) (human, UniProt O95760 112-270)
T1 construct: also called hIL-33; huIL-33
T1 sequence (looked up): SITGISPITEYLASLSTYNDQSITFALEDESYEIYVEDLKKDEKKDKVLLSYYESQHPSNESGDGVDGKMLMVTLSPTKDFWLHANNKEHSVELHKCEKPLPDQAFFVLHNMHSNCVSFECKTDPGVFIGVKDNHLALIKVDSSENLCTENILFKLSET
Assay: SPR Biacore T200, 25 C
Catalogue of t1/2 values
Answer format: value, then unit.

query: Find the recorded t1/2 belonging to H4H9629P (antibody, IgG4, V domains shown, also called RG4) VH: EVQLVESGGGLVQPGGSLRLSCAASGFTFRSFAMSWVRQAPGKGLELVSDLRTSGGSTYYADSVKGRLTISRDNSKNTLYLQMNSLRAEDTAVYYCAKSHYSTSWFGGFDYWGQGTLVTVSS VL: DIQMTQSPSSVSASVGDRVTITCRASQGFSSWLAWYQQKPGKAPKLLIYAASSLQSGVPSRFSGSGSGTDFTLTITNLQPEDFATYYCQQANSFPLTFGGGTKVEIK and report it.
result: 18 min

query: Data request, read-out t1/2, for H4H9633P (antibody, IgG4, V domains shown, also called RG5) VH: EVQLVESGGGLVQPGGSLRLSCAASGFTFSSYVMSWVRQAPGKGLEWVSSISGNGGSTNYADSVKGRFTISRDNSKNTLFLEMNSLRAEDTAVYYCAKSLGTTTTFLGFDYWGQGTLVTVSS VL: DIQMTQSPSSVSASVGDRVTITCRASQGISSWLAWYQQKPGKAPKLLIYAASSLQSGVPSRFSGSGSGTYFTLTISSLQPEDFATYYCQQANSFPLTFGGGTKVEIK
result: 25 min

query: I have this binder here, H4H9659P (antibody, IgG4, V domains shown, also called RG7) VH: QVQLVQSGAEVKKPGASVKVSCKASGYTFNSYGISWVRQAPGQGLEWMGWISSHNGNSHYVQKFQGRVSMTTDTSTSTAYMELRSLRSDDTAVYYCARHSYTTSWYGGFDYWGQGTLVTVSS VL: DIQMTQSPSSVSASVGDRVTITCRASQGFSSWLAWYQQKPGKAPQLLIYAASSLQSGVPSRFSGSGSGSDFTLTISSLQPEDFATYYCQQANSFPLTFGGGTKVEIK , and I need its recorded t1/2.
result: 23 min

query: # get_value(readout='t1/2', item= H1M9559N (antibody, IgG1, V domains shown, also called RG1) VH: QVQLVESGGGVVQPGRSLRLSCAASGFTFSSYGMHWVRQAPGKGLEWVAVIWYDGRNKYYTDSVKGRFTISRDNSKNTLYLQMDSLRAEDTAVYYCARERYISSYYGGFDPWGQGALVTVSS VL: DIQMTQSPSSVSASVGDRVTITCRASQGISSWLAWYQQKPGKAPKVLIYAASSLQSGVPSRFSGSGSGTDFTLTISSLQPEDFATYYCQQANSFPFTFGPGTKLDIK )
result: 63 min

query: Query: t1/2; subject: H4H9640P (antibody, IgG4, V domains shown, also called RG6) VH: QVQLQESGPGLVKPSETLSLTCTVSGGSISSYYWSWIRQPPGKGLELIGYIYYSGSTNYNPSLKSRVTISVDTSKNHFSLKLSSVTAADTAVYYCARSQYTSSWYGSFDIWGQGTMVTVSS VL: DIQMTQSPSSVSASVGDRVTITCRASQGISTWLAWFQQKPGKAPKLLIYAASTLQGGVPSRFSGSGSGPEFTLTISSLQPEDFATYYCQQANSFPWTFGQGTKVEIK
result: 26 min

query: Please give the measured t1/2 for this binder: 10C12.38.H6.87Y.58I IgG4 (antibody, V domains shown, also called anti-IL33 10C12.38.H6.87Y.58I IgG4) VH: EVQLVESGGGLVQPGGSLRLSCAASGFTFSSFSMSWVRQAPGKGLEWVATISGGKTFTDYVDSVKGRFTISRDDSKNTLYLQMNSLRAEDTAVYYCTRANYGNWFFEVWGQGTLVTVSS VL: EIVLTQSPATLSLSPGERATLSCRASESVAKYGLSLLNWFQQKPGQPPRLLIFAASNRGSGIPARFSGSGSGTDFTLTISSLEPEDFAVYYCQQSKEVPFTFGQGTKVEIKR
result: 19 min

query: Give the measured t1/2 of H1M9566N (antibody, IgG1, V domains shown, also called RG2) VH: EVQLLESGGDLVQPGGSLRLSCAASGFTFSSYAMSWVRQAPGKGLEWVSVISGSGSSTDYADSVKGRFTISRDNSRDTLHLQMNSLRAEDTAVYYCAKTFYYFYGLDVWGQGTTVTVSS VL: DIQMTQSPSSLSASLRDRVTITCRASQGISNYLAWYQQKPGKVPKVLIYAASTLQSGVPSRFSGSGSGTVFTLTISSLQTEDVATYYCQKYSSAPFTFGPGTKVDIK .
result: 149 min
